System: UACC-257 melanoma
Assay: NCI tumour cell line growth inhibition, 48 h
Measured TGI of individual entries
test_readout: TGI

compound=N#Cc1ccc(C#Cc2ccccc2C#CCCCCO)cc1 recorded_result="31.4 µM"
compound=Cc1nc(-c2ccc([N+](=O)[O-])cc2)cn2c1nc1ccccc12 recorded_result="> 100 µM"
compound=CNC(=O)OCc1c(COC(=O)NC)c(-c2ccc(Cl)c(Cl)c2)n2c1SCC2 recorded_result="31.7 µM"
compound="C/C(CCOC1CCCCO1)=C(\\C)[Si](C)(C)C (centres undefined)" recorded_result="> 100 µM"
compound="CCCCCCCCCCCCCC(=O)OC1CC(=O)OC1CO (centres undefined)" recorded_result="> 100 µM"
compound="C=C(C)C12CC(COC(=O)c3ccccc3)C34OC5(OC1C3C1OC1(CO)C(O)C1(O)C(OC(=O)c3ccccc3)C(C)C(C(C)CCCCCCC5O)C14)O2 (centres undefined)" recorded_result="> 100 µM"
compound="O=NN(Cc1ccc(Cl)cc1)C(C(=O)O)c1ccccc1 (centres undefined)" recorded_result="> 100 µM"
compound=CN1CCN(Cc2ccc(NC(=O)c3cncc(C#Cc4cnc(N)c5ccc(C#N)cc45)c3)cc2C(F)(F)F)CC1 recorded_result="3.09 µM"
compound=NC(=O)N/N=C(\Cc1nc2ccc(Cl)cc2[nH]c1=O)C(=O)Nc1ccc(Cl)cc1Cl recorded_result="> 100 µM"

* * *

System: PC-3 prostate
Experiment: NCI tumour cell line growth inhibition, 48 h
Measured TGI of individual entries
test_readout: TGI

compound="CC(C)(C)C1=C(Br)C(Br)(C(C)(C)C)OP1(=O)c1ccccc1 (stereo not drawn)" recorded_result="> 100 µM"
compound="CC1OC(n2cc(F)c(=O)[nH]c2=O)CCC1O (stereo not drawn)" recorded_result="> 100 µM"
compound="Cn1c(N2NC(=O)C(N=Nc3ccc(S(N)(=O)=O)cc3)C2=O)nc(-c2ccco2)c(C#N)c1=O (stereo not drawn)" recorded_result="> 50 µM"
compound="COC(=O)C(/C(=N/NC(N)=O)C(=O)Nc1ccc(C)cc1)c1nc2ccc([N+](=O)[O-])cc2[nH]c1=O (stereo not drawn)" recorded_result="> 100 µM"
compound="C[N+]1=C2[B-](C(C)(C)C)=[N+](C(C)(C)C)[B-]2(C(C)(C)C)[N+](C)=C2[B-](C(C)(C)C)=[N+](C(C)(C)C)[B-]21C(C)(C)C (stereo not drawn)" recorded_result="> 100 µM"
compound=COC(=O)C1(C(=O)OC)CC2=C(S(=O)(=O)c3ccccc3)C[C@H](S(=O)(=O)c3ccccc3)[C@H]2C1 recorded_result="> 100 µM"
compound=Cc1nc2c(sc(=S)n2-c2ccccc2)c2nc3ncccc3n12 recorded_result="> 100 µM"
compound="COCOC1/C=C/CCCC#C[C@H](C)C(=O)CC1 (stereo partly drawn)" recorded_result="21.5 µM"
compound="CCCCN1C(=O)CC2[C@@H]3CCc4cc(OC(C)=O)ccc4C3CC[C@]2(C)C1=O (stereo partly drawn)" recorded_result="> 10 µM"
compound="O=C(O)c1cc2c(cc1CC(Cc1ccc3c(c1)CCC3)C(=O)O)CCC2 (stereo not drawn)" recorded_result="> 100 µM"
compound=CC(C)Sc1nc(C#N)cc2c1CCCC2 recorded_result="> 100 µM"
compound=CN(CCC#N)c1ccc(/C=C2\SC(=S)NC2=O)cc1 recorded_result="> 100 µM"
compound=CN(C)CCNc1cc(-c2ccccc2)nc2ccccc12 recorded_result="24.9 µM"

* * *

Tested on: NCI-H460 lung
Experiment: NCI tumour cell line growth inhibition, 48 h
Where a SMILES comes first, the peptide text is derived from it. The star is where a group is joined. Boc = CC(C)(C)OC(=O)*
test_readout: TGI

molecule=COc1ccc(-n2c(=O)c3[nH]cnc3n(-c3ccc(OC)cc3)c2=S)cc1 test_readout=TGI recorded_result="> 100 µM"
molecule=Cc1nc2c(sc(=S)n2-c2ccccc2)c2nc3ncccc3n12 test_readout=TGI recorded_result="> 100 µM"
molecule="O=C(O)CCCCC(CCSCc1ccccc1)SCc1ccccc1 (stereo not drawn)" test_readout=TGI recorded_result="> 100 µM"
molecule="OCc1ccc2[n+](c1)CCC1c3ccccc3NC21 (stereo not drawn)" test_readout=TGI recorded_result="> 300 µM"
molecule=Cc1nc2c(nc1Cl)nc(Oc1ccc(Cl)cc1)c1ccccc12 test_readout=TGI recorded_result="> 100 µM"
molecule="Clc1ccc(C2N3CCCCC3[C@@H]3c4[nH]c5ccccc5c4CCN23)cc1 (stereo partly drawn)" test_readout=TGI recorded_result="> 100 µM"
molecule="C=C1CC(COc2cc(=O)oc3ccccc23)(c2ccccc2)OC1=O (stereo not drawn)" test_readout=TGI recorded_result="23.7 µM"
molecule="O=C1C=CC(=Nc2ccc3c(c2)C(Br)c2ccccc2-3)O1 (stereo not drawn)" test_readout=TGI recorded_result="> 100 µM"
molecule="C=C(C)C12CC(COC(=O)c3ccccc3)C34OC5(OC1C3C1OC1(CO)C(O)C1(O)C(OC(=O)c3ccccc3)C(C)C(C(C)CCCCCCC5O)C14)O2 (stereo not drawn)" test_readout=TGI recorded_result="> 100 µM"
molecule="COC(=O)CNC(=O)C(Cc1ccccc1)NC(=O)C(CCSC)NC(=O)C(Cc1ccc(O)cc1)NC(=O)OC(C)(C)C (stereo not drawn) (Boc-YMFG-OMe; configuration not given here)" test_readout=TGI recorded_result="> 100 µM"
molecule=Nc1cc(CO)cc(Nc2nc3ccc(Cl)cc3c3[nH]c4ccccc4c23)c1 test_readout=TGI recorded_result="6.56 µM"
molecule="O=C(NCCOCCOCCNc1cccc2c1C(=O)N(C1CCCNC1=O)C2=O)c1cc2c(o1)C(=O)c1ccccc1C2=O (stereo not drawn)" test_readout=TGI recorded_result="3.59 µM"
molecule="COc1ccc(C2Oc3c(cc(O)c(OC)c3C)[C@@H]2C)cc1OC (stereo partly drawn)" test_readout=TGI recorded_result="> 100 µM"
molecule="CCOC(=O)CNC(=O)C(CSCc1ccc(Br)cc1)NC(=O)CCC(N)C(=O)OCC (stereo not drawn)" test_readout=TGI recorded_result="> 50 µM"
molecule="CC1OC(O[C@H]2C[C@@H](O)[C@]3(CO)[C@H]4[C@H](O)C[C@]5(C)[C@@H](C6=CC(=O)OC6)CC[C@]5(O)[C@@H]4CC[C@]3(O)C2)C(O)C(O)C1O (stereo partly drawn)" test_readout=TGI recorded_result="35.4 µM"
molecule=CCN1c2ccccc2-n2c(C)nnc2-c2c1n[nH]c2-c1ccccc1 test_readout=TGI recorded_result="> 100 µM"
molecule=COc1cc(OC)cc(-c2ccc(-c3ccc(C(=N)N)o3)o2)c1 test_readout=TGI recorded_result="5.17 µM"
molecule=CC[CH2][Pb]([CH2]CC)([CH2]CC)[O]C(=O)C(F)(F)F test_readout=TGI recorded_result="0.398 µM"
molecule="OC1C2[C@@H](O)CCCN2C[C@@H](O)[C@H]1O (stereo partly drawn)" test_readout=TGI recorded_result="> 100 µM"
molecule=O=C(O)Cn1ccc(=O)c2ccc([N+](=O)[O-])cc21 test_readout=TGI recorded_result="> 100 µM"
molecule=Cc1ccc([C@@H]2[C@@H](C(=O)c3ccccn3)[C@H](c3ccc(C)cc3)C[C@](O)(c3ccccn3)[C@H]2C(=O)c2ccccn2)cc1 test_readout=TGI recorded_result="10.7 µM"
molecule="COC(=O)C1=C(C(=O)OC)C2C=CC1C1C(Cl)=C(Cl)C21 (stereo not drawn)" test_readout=TGI recorded_result="> 100 µM"
molecule=COc1ccc(/C(=C2\O[C@@H]([C@H]3COC(C)(C)O3)[C@H]3OC(C)(C)O[C@@H]23)c2cc(OC)c(OC)c(OC)c2)cc1O test_readout=TGI recorded_result="> 100 µM"
molecule=C=C(C(=O)C(=O)Oc1ccc(Cl)cc1)C(=O)c1ccc(C)cc1 test_readout=TGI recorded_result="> 100 µM"
molecule="c1ccc(C2C3=C(Nc4ncnn42)c2ccccc2C3)cc1 (stereo not drawn)" test_readout=TGI recorded_result="> 100 µM"
molecule=O=C(O)c1c2c(cc3c1CC1(Cc4ccccc4C1)C3)CCC2 test_readout=TGI recorded_result="> 100 µM"
molecule=CC(C)CC(=O)[O-].CC(C)CC(=O)[O-].N.N.N.N.[Co+3].[O-][Cl+3]([O-])([O-])[O-] test_readout=TGI recorded_result="> 100 µM"
molecule=COc1cc(/C=C2/C(=O)N(C(=O)c3ccccc3O)N=C2C)cc(OC)c1OC test_readout=TGI recorded_result="> 100 µM"

* * *

System: MALME-3M melanoma
Experiment: NCI tumour cell line growth inhibition, 48 h
test_readout: TGI (µM)

compound=NCC1CCN(c2nc3ccccc3c3c2CCCC3)CC1 relation_qualifier== recorded_result=26
compound=CCOC(=O)CCc1cc(=O)oc2cc(O)cc(O)c12 relation_qualifier=> recorded_result=100
compound=C[C@]12CC[C@@H]3c4ccc(O)cc4CC[C@H]3[C@@H]1C/C(=C\c1ccncc1)C2=O relation_qualifier== recorded_result=54.8
compound=Cc1cc(N(CCC#N)CCC#N)ccc1/C=N/NC(=O)c1cc(Cl)ccc1O relation_qualifier=> recorded_result=100
compound=O=c1[nH]n2c(=O)cc[nH]c2c1-c1nnns1 relation_qualifier=> recorded_result=100
compound=CC[C@]1(Cc2ccc(OC)c(OC)c2)CN(S(=O)(=O)c2ccc(C)cc2)C[C@@H]1OC(C)=O relation_qualifier=> recorded_result=100
compound="CC1(O)CC(C(F)(F)F)(C(F)(F)F)OC1=O (stereo unspecified)" relation_qualifier=> recorded_result=10
compound=Cn1cc2ccccc2c1-c1nc(N)nc(F)n1 relation_qualifier=> recorded_result=100
compound=C#CCCCCC#Cc1ccccc1C(=O)OC relation_qualifier=> recorded_result=100
compound="CC(C)(C)C1=C(Br)C(Br)(C(C)(C)C)OP1(=O)c1ccccc1 (stereo unspecified)" relation_qualifier=> recorded_result=100
compound="CC1CCC2(C(=O)O)CCC3(C)C(=CCC4C5(C)CC(O)C(O)C(C)(CO)C5C(O)CC43C)C2C1C (stereo unspecified)" relation_qualifier=> recorded_result=100
compound="CC12CC[C@@H](C(C)(C)O)C1[C@@H](O)CC1(C)C2CCC2[C@@]3(C)CC[C@H](O)C(C)(C)C3C(O)C[C@]21C (stereo partly specified)" relation_qualifier== recorded_result=32.1
compound=N#Cc1ccc(C#Cc2ccccc2C#CCCCCO)cc1 relation_qualifier== recorded_result=38.7
compound="CCCCCCCCCCCCCCCCCCNc1ccn(C2OC(COP(=O)(O)OCC3OC(n4ccc(NC(=O)CCCCCCCCCCCCCCCCC)nc4=O)C(OC(C)=O)C3OC(C)=O)C(OC(C)=O)C2OC(C)=O)c(=O)n1 (stereo unspecified)" relation_qualifier=> recorded_result=100
compound=OCCCCCNc1c2ccccc2nc2ccccc12 relation_qualifier== recorded_result=4.15
compound=CC[CH2][Pb]([CH2]CC)([CH2]CC)[O]C(=O)C(F)(F)F relation_qualifier== recorded_result=0.348
compound=O=C(NNC(=S)Nc1ccc(Cl)cc1)c1cc(-c2ccccc2)nc2ccccc12 relation_qualifier== recorded_result=17.5
compound=COC(=O)C(CCC#N)(CCC#N)C(=O)OC relation_qualifier=> recorded_result=100
compound=Nc1cc(CO)cc(Nc2nc3ccc(Cl)cc3c3[nH]c4ccccc4c23)c1 relation_qualifier== recorded_result=15.8
compound=COc1ccc2[nH]c(O)c(/C=c3/cc4c(c(-c5cc(OC)c(OC)c(OC)c5)n3)=Nc3ccccc3-4)c2c1 relation_qualifier=> recorded_result=100
compound=O=C(Nc1ccc(N2CCNCC2)cc1)c1[nH]ncc1Nc1cc(Oc2ccccc2)ncn1 relation_qualifier== recorded_result=4.93
